biological target: S1P3 (Homo sapiens); assay: Receptor binding assay, [33P]sphingosine 1-phosphate competition, membranes of CHO cells expressing S1P3; settings: 384 well plate; read-out: S1P3 Binding Ki [M] (384 well plate)
Sequence (Q99500 whole entry, species assumed): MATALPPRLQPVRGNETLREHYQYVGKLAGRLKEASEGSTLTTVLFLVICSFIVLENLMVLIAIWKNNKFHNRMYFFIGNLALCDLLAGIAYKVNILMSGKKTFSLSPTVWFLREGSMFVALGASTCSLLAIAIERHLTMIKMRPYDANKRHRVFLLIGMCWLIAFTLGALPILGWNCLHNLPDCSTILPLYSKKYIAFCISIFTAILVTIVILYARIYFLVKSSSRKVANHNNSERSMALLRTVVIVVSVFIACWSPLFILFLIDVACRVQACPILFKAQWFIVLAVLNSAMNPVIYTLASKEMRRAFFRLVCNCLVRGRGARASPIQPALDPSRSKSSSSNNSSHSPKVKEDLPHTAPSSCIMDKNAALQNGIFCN
Counter-ions that a name gives are not always drawn.
value-kind: Ki (M)
Kindly provide the numeric value in M only, without the unit symbol.

Some entries whose results are on file:
compound: Cc1ccccc1-c1ccc(-c2nc(-c3ccc(CN(C)C(C)(CO)C(=O)O)cc3)no2)cc1C(F)(F)F (stereo not shown) [Example 75]
value-kind: Ki
experimental-result: 2.3e-06
//
compound: CCN(Cc1ccc(-c2noc(-c3ccc(-c4ccccc4C)c(C(F)(F)F)c3)n2)cc1)[C@H](C)C(=O)O [Example 90]
value-kind: Ki
experimental-result: 9.48e-07
//
compound: Cc1ccccc1-c1ccc(-c2nc(-c3cccc(CNC(C(=O)O)C(C)C)c3)no2)cc1C(F)(F)F (stereo not shown) [Example 79]
value-kind: Ki
experimental-result: 2.67e-07

Q) Reported Ki for Cc1ccccc1-c1ccc(-c2nc(-c3ccc([C@H](C)N[C@H](C)C(=O)O)cc3)no2)cc1C(F)(F)F [Example 17, hydrochloride salt] : what is it?
A) 2.25e-06
